- Protocol: MM1S myeloma cell viability, profiling panel, resazurin fluorescence, basal, 24 h, PK04 Diversity Set (AID 1174);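 also: MM1S multiple myeloma cell line; test concentration not given here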
- Experimental setup: higher = more signal, called active from +8 up or from −8 down
# z-score >= -0.05 gives y, anything below gives n

Compound	Label value
CCCC[C@H]1OB(O)C[C@H]2C1=C(C)C[C@H]1C(=O)N(Cc3ccccc3)C(=O)[C@H]12	y
O=C1O[C@H](c2ccccc2)[C@H](c2ccccc2)N2[C@H]1[C@@H](C(=O)N1CCN(c3ncccn3)CC1)[C@]1(C(=O)Nc3ccccc31)[C@H]2c1ccc(OCCO)cc1	y
CCOC(=O)C[C@H]1[C@H](OC(=O)c2ccccc2-c2ccccc2)[C@@H](NC(=O)Cc2ccc(OC)cc2)c2cc(OCCCO)ccc2N1C(=O)c1ccccc1	n
COc1ccc(C(O)C2C=CC3C(=O)N(c4ccccc4)C(=O)C3N2Nc2ccc([N+](=O)[O-])cc2)cc1OCc1ccccc1 (stereo unspecified)	n
O=C1O[C@@H](c2ccccc2)[C@@H](c2ccccc2)N2[C@@H](c3ccccc3OCCO)[C@]3(C(=O)Nc4ccc(C#CC5(O)CCCCCC5)cc43)[C@@H](C(=O)Nc3nc4ccccc4s3)[C@H]12	n

---

// reported composite z-score per item
- Tested on: Lefty1
- Protocol: Lefty1 binders on small-molecule microarrays, primary screen, biochemical, small-molecule microarray, 635/667 nm fluorescence (AID 1139)
- Experimental setup: small-molecule microarray binding, fluorescence 635/667; higher = more signal

Compound	Target system	composite z-score
COc1ccc(C(=O)Nc2cccc(CN3C(=O)[C@@]4(O[C@@H](CCn5cc(CCO)nn5)[C@H]([Si](C)(C)c5ccc(OC)cc5)[C@H]4C)c4ccccc43)c2)cc1	Lefty1	1.29
CC(C)N1C(=O)C[C@@](C(=O)NCc2ccccc2)(c2ccc([N+](=O)[O-])cc2)[C@H]1c1ccc(CO)cc1	Lefty1	0.119
CCOC(=O)C[C@H]1[C@H](OC(=O)c2ccc(-c3ccccc3)cc2)[C@@H](NC(=O)c2ccc3ccccc3c2)c2cc(OCCCO)ccc2N1C(=O)Cc1ccc(OC)cc1	Lefty1	-0.154
COCCOC(=O)N1C(=O)[C@@]2(c3cc(C#CCC(C(=O)OC)C(=O)OC)ccc31)[C@H](C(=O)N1CCN(c3ncccn3)CC1)[C@H]1C(=O)O[C@H](c3ccccc3)[C@H](c3ccccc3)N1[C@@H]2c1ccc(OCCO)cc1	Lefty1	0.733
CC(C)CNC(=O)[C@@]1(c2ccc([N+](=O)[O-])cc2)CC(=O)N(CC23CC4CC(CC(C4)C2)C3)[C@@H]1c1ccc(CO)cc1I	Lefty1	1.12
Cc1cc(C)cc(N2C(=O)CS(=O)(=O)C2c2cccc([N+](=O)[O-])c2)c1 (stereo not drawn)	Lefty1	0.874
C=CCOC(=O)[C@@H]1[C@H]2C(=O)O[C@H](c3ccccc3)[C@H](c3ccccc3)N2[C@H](c2ccc(OCCOC(=O)[C@@H]3C[C@@H]4C(=O)N[C@@H](Cc5ccccc5)C(=O)N4[C@@H]3c3cccc(OCCO)c3)cc2)[C@@]12C(=O)Nc1ccc(I)cc12	Lefty1	0.951
CCOC(=O)C1=CC[C@@H](c2ccccc2Cl)N(S(=O)(=O)c2ccc(C)cc2)C1	Lefty1	-0.612

---

- Protocol: anti-His antibody binders, primary screen, artefact control for SMM control protein annotation, biochemical, small-molecule microarray, 635 nm fluorescence (AID 1128);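 also: score merges feature fluorescence with signal-to-noise for each printed compound spot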
- Experimental setup: anti-His Alexa647 antibody binding, higher = more signal

Compound	composite z-score
CC(C)C[C@@H]1NC(=O)[C@H]2C[C@@H](C(=O)NCCCCCCNC(=O)CS)[C@@H](c3cccc(OCCO)c3)N2C1=O	1.19
CCOC(=O)[C@H]1C/C=C/C[C@H](C(=O)OCC)C(=O)O[C@H]2[C@@H](OC)O[C@H](CO)[C@@H](OC(=O)Nc3ccc4c(c3)OCO4)[C@@H]2OC1=O	2.08
COCCOC(=O)N1C(=O)[C@@]2(c3cc(C#Cc4ccc(OC)cc4)ccc31)[C@H](C(=O)N1CCN(c3ncccn3)CC1)[C@H]1C(=O)O[C@H](c3ccccc3)[C@H](c3ccccc3)N1[C@@H]2c1ccc(O)cc1	0.136
CS(=O)(=O)CCOC(=O)C1=CC(c2ccc(CO)cc2)=CC(C2CC2)N(Cc2cc3c(cc2Br)OCO3)C=C1C(=O)OCCS(C)(=O)=O (stereo unspecified)	1.92
COCCOC(=O)N1C(=O)[C@@]2(c3cc(C#CCC(C(=O)OC)C(=O)OC)ccc31)[C@H](c1ccccc1OCCO)N1[C@H](c3ccccc3)[C@H](c3ccccc3)OC(=O)[C@H]1[C@@H]2C(N)=O	2.79
[N-]=[N+]=NCc1ccccc1C[C@@]1(C(=O)NCC(O)CO)N=C(c2ccc(OCCCO)cc2)O[C@@H]1c1ccccc1CN=[N+]=[N-] (stereo partly specified)	-0.0645

Each recorded value in this set is attributed to PubChem BioAssay.
